Assay: Cytotoxicity against human HDFa cells assessed as cell survival measured after 72 hrs incubation by Cell Titer-Glo luminescent assay
Format: toxicity, cell-based

{"columns": ["smilesRepr", "IC50 at 72 h"],
 "data": [
  ["CCCCCCCCn1c2c([n+](Cc3ccccc3)c1C)C(=O)c1ccccc1C2=O.[Br-]", "1060 nM"]
]}

---

half-life at 2 µM reference
Assay: Metabolic stability in human liver microsomes assessed as half life at 2 uM preincubated for 5 mins followed by NADPH addition and measured for 35 mins by LC/MS analysis
Type: ADME, Microsome
Settings: preincubation 5 min
assayEndpoint: half-life at 2 µM

{"columns": ["smilesRepr", "valueMeasured"],
 "data": [
  ["CCCCCCCn1c2c([n+](CCCCCCC)c1C)C(=O)c1ccccc1C2=O.[Br-]", "17.4 min"],
  ["CCCCCCCCCCn1c2c([n+](Cc3ccccc3)c1C)C(=O)c1ccccc1C2=O.[Br-]", "13.2 min"],
  ["CCCCCCCCn1c2c([n+](CCCC)c1C)C(=O)c1ccccc1C2=O.[Br-]", "11.6 min"],
  ["CCCCCCCn1c2c([n+](Cc3ccco3)c1C)C(=O)c1ccccc1C2=O.[Br-]", "55.1 min"],
  ["CCCCCCCCn1c2c([n+](Cc3ccco3)c1C)C(=O)c1ccccc1C2=O.[Br-]", "16.1 min"],
  ["CCCCCC[n+]1c2c(n(CCOC)c1C)C(=O)c1ccccc1C2=O.[Br-]", "33.7 min"],
  ["CCCCCCCn1c2c([n+](Cc3ccccc3)c1C)C(=O)c1ccccc1C2=O.[Br-]", "15.6 min"],
  ["CCCCCCCCCn1c2c([n+](Cc3ccccc3)c1C)C(=O)c1ccccc1C2=O.[Br-]", "51.8 min"],
  ["CCCCCCCCn1c2c([n+](Cc3ccccc3)c1C)C(=O)c1ccccc1C2=O.[Br-]", "32 min"]
]}

---

Tested on: Staphylococcus aureus
Assay: Antibacterial agents against methicillin-resistant Staphylococcus aureus USA300 assessed as absence of growth measured after 18 hrs by micro-dilution method
Type: functional
MIC reference
assayEndpoint: MIC (µg/mL)

{"columns": ["smilesRepr", "assayEndpoint", "valueMeasured"],
 "data": [
  ["CCCCCCCn1c2c([n+](CCCCCCC)c1C)C(=O)c1ccccc1C2=O.[Br-]", "MIC", 0.39],
  ["CCCCCCCCn1c2c([n+](Cc3ccccc3)c1C)C(=O)c1ccccc1C2=O.[Br-]", "MIC", 0.39],
  ["CCCCCCCCCCn1c2c([n+](Cc3ccccc3)c1C)C(=O)c1ccccc1C2=O.[Br-]", "MIC", 0.39],
  ["CCCCCC[n+]1c2c(n(CCOC)c1C)C(=O)c1ccccc1C2=O.[Br-]", "MIC", 6.25],
  ["CCCCCCCCn1c2c([n+](Cc3ccco3)c1C)C(=O)c1ccccc1C2=O.[Br-]", "MIC", 0.39]
]}

---

Test system: Staphylococcus aureus
Assay: Antibacterial agents against methicillin-resistant Staphylococcus aureus USA300 assessed as absence of growth measured after 18 hrs by micro-dilution method
Type: functional
assayEndpoint: MIC (µg/mL)

{"columns": ["compound", "assayEndpoint", "valueMeasured"],
 "data": [
  ["CCCCCCCCCn1c2c([n+](Cc3ccccc3)c1C)C(=O)c1ccccc1C2=O.[Br-]", "MIC", 0.39],
  ["CCCCCCCCn1c2c([n+](CCCC)c1C)C(=O)c1ccccc1C2=O.[Br-]", "MIC", 0.39],
  ["CN[C@H](CC(C)C)C(=O)N[C@H]1C(=O)N[C@@H](CC(N)=O)C(=O)N[C@H]2C(=O)N[C@H]3C(=O)N[C@H](C(=O)N[C@H](C(=O)O)c4cc(O)cc(O)c4-c4cc3ccc4O)[C@H](O)c3ccc(c(Cl)c3)Oc3cc2cc(c3O[C@@H]2O[C@H](CO)[C@@H](O)[C@H](O)[C@H]2O[C@H]2C[C@](C)(N)[C@H](O)[C@H](C)O2)Oc2ccc(cc2Cl)[C@H]1O [VANCOMYCIN]", "MIC", 6.25],
  ["CCCCCCCn1c2c([n+](Cc3ccco3)c1C)C(=O)c1ccccc1C2=O.[Br-]", "MIC", 0.78],
  ["CCCCCCn1c2c([n+](CCCCCC)c1C)C(=O)c1ccccc1C2=O.[Br-]", "MIC", 0.78],
  ["CCCCCCCn1c2c([n+](Cc3ccccc3)c1C)C(=O)c1ccccc1C2=O.[Br-]", "MIC", 0.78]
]}
